- target.or.test.system: rNaV1.2 (Rattus norvegicus, UniProt P04775)
- Sequence (P04775 whole entry): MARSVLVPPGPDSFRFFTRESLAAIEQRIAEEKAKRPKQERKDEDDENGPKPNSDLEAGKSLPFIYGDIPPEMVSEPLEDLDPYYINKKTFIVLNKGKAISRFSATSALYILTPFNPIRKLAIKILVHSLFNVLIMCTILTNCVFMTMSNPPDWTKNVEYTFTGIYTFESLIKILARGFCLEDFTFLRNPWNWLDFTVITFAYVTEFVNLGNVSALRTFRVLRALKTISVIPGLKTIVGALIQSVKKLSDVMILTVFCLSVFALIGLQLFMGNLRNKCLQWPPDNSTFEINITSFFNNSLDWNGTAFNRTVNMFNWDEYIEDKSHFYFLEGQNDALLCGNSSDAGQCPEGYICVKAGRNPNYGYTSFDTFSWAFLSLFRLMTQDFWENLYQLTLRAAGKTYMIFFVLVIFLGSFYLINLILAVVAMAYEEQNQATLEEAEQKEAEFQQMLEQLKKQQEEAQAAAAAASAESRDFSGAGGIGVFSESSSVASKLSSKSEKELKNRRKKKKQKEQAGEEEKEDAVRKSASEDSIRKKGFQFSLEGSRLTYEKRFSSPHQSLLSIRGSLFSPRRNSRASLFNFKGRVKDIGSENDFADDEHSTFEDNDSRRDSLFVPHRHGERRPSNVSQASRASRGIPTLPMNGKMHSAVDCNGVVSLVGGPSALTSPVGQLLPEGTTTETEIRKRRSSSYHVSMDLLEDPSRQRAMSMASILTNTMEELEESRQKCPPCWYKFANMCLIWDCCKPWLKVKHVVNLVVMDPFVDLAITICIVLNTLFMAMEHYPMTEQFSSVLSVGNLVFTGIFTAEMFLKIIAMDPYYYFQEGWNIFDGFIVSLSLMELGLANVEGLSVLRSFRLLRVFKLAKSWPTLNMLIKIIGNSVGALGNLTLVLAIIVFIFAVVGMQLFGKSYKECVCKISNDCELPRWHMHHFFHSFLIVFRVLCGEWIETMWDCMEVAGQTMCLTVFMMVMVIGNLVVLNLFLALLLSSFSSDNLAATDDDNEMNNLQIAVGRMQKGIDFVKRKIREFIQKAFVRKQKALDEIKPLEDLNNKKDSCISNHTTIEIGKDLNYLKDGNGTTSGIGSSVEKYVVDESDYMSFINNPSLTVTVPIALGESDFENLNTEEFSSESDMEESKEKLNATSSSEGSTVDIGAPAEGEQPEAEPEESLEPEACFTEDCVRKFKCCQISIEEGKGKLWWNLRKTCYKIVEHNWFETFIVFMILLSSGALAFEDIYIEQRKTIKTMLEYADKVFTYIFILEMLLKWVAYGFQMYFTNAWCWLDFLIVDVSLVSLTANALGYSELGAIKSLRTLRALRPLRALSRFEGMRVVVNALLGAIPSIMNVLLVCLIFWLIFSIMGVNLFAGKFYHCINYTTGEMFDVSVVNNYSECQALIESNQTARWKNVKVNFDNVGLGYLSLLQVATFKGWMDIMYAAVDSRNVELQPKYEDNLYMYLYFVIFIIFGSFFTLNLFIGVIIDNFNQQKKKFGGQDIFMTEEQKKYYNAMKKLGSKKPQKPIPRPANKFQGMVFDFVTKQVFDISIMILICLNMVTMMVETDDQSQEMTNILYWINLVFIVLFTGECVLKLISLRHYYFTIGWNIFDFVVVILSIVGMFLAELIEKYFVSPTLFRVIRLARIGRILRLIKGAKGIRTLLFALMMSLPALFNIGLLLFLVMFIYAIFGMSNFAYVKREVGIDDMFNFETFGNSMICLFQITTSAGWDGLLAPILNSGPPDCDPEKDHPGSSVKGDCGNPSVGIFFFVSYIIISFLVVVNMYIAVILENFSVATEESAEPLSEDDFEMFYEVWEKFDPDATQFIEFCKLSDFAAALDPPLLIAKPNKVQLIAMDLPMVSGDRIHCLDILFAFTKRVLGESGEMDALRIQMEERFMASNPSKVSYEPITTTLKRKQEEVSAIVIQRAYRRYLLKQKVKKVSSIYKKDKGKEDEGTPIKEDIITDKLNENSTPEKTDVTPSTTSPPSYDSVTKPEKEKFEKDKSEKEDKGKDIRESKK
- Sequence (Q00954 19-218, further chain): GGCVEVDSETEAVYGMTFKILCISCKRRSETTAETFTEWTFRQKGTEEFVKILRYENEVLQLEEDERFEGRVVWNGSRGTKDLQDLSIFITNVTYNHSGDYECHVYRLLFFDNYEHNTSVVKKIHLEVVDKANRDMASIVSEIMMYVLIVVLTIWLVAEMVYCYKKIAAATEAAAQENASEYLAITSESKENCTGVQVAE
- test.protocol: Two-electrode voltage-clamp on Xenopus laevis oocytes expressing NaV1.2
- assay.setup: read-out: Maximum % inhibition NaV1.2, peptide at 100 μM
Where a SMILES comes first, the peptide text is derived from it. Bridges are numbered along the chain shown (N, C = ends).
property.name: inhibition at 100 µM

What measured inhibition at 100 µM goes with C[C@@H]1NC(=O)[C@H](Cc2c[nH]c3ccccc23)NC(=O)[C@H](CCCNC(=N)N)NC(=O)[C@H](CCCNC(=N)N)NC(=O)[C@@H](N)CSSC[C@@H](C(=O)O)NC(=O)[C@H](CCCNC(=N)N)NC(=O)[C@H](CC(N)=O)NC(=O)[C@H](Cc2c[nH]c3ccccc23)NC(=O)[C@H](CCCNC(=N)N)NC1=O [PnCS1DeAm, CRRWARWNRC] (H-CRRWARWNRC-OH; disulfide 1-10) ?
34%

Likewise for C[C@@H]1NC(=O)[C@H](Cc2ccc(O)cc2)NC(=O)[C@H](CCCNC(=N)N)NC(=O)[C@H](CCCNC(=N)N)NC(=O)[C@@H](N)CSSC[C@@H](C(N)=O)NC(=O)[C@H](CCCNC(=N)N)NC(=O)[C@H](CC(N)=O)NC(=O)[C@H](Cc2c[nH]c3ccccc23)NC(=O)[C@H](CCCNC(=N)N)NC1=O [PnCS1[W4Y], CRRYARWNRC ^*] (H-CRRYARWNRC-NH2; disulfide 1-10) ?
39%

----------
- target.or.test.system: hNaV1.5 (Homo sapiens, UniProt Q14524)
- Sequence (Q14524 whole entry): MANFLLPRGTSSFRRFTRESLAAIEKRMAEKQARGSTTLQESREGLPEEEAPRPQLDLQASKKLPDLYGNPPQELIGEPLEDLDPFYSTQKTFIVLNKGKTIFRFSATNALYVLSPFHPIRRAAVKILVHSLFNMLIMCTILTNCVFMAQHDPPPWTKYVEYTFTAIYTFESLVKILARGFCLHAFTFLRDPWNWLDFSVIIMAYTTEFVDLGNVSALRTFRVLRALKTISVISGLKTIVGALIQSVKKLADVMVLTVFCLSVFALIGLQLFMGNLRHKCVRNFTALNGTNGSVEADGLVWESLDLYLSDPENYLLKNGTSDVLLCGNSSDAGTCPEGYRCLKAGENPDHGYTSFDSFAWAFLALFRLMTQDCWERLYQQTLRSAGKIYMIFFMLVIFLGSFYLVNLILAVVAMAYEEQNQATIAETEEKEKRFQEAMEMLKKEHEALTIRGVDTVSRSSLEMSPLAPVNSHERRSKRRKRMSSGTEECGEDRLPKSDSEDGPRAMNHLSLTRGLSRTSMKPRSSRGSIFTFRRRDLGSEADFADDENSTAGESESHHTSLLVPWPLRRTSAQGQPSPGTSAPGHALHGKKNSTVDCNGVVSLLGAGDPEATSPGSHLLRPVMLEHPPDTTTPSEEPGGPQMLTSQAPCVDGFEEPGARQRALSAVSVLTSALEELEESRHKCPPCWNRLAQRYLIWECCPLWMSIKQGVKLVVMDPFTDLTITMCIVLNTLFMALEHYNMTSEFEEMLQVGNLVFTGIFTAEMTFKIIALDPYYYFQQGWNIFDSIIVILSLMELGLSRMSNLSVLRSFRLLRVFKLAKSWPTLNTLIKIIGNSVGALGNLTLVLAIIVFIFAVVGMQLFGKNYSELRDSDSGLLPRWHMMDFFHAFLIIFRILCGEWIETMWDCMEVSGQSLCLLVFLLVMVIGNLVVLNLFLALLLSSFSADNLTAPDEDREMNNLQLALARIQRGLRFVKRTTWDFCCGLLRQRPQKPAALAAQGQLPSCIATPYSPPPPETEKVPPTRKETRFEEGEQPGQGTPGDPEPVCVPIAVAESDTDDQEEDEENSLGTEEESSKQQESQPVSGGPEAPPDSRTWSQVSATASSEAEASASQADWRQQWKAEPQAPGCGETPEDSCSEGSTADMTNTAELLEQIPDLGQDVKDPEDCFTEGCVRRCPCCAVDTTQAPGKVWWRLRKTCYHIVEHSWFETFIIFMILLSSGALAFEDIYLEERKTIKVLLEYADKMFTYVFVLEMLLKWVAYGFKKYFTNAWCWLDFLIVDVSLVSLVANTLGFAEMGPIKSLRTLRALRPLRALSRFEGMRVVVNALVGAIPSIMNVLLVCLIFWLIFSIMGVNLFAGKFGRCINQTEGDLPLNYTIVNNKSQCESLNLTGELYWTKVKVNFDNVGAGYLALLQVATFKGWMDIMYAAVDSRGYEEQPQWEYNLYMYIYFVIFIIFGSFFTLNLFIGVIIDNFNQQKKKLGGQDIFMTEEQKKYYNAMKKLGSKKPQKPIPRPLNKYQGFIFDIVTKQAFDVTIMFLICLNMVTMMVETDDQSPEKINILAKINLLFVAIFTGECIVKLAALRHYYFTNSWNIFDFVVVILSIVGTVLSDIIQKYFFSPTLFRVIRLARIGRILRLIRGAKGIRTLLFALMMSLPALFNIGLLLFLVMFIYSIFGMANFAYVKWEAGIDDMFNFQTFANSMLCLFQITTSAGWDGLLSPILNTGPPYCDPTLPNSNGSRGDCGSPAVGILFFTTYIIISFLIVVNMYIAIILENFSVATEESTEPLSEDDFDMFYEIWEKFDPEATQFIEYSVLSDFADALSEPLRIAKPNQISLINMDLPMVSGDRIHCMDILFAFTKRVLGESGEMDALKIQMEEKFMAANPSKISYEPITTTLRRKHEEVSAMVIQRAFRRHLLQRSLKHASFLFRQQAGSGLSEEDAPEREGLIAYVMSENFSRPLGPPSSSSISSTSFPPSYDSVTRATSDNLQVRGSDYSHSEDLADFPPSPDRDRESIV
Where a SMILES comes first, the peptide text is derived from it. Bridges are numbered along the chain shown (N, C = ends).
property.name: pIC50
Formally, pIC50 is defined as -log10 of the concentration c, with c in mol/L.

Could you share which pIC50 value was measured for C[C@@H]1NC(=O)[C@H](Cc2c[nH]c3ccccc23)NC(=O)[C@H](CCCNC(=N)N)NC(=O)[C@H](CCCNC(=N)N)NC(=O)[C@@H](N)CSSC[C@@H](C(N)=O)NC(=O)[C@H](CCCCN)NC(=O)[C@H](CC(N)=O)NC(=O)[C@H](Cc2c[nH]c3ccccc23)NC(=O)[C@H](CCCNC(=N)N)NC1=O [PnCS1[R9K], CRRWARWNKC ^*] (H-CRRWARWNKC-NH2; disulfide 1-10) ?
5.04

And for C[C@@H]1NC(=O)[C@H](CCCNC(=N)N)NC(=O)[C@H](C)NC(=O)[C@H](Cc2c[nH]c3ccccc23)NC(=O)[C@H](CCCNC(=N)N)NC(=O)[C@H](CCCNC(=N)N)NC(=O)[C@@H](N)CSSC[C@@H](C(N)=O)NC(=O)[C@H](CCCNC(=N)N)NC(=O)[C@H](CC(N)=O)NC1=O [PnCS1[W7A], CRRWARANRC ^*] (H-CRRWARANRC-NH2; disulfide 1-10) ?
5.17

Ok, now C[C@@H]1NC(=O)[C@H](CCCCN)NC(=O)[C@H](CCCNC(=N)N)NC(=O)[C@H](CCCNC(=N)N)NC(=O)[C@@H](N)CSSC[C@@H](C(N)=O)NC(=O)[C@H](CCCNC(=N)N)NC(=O)[C@H](CC(N)=O)NC(=O)[C@H](Cc2c[nH]c3ccccc23)NC(=O)[C@H](CCCNC(=N)N)NC1=O [PnCS1[W4K], CRRKARWNRC ^*] (H-CRRKARWNRC-NH2; disulfide 1-10)
5.57

// query: C[C@@H]1NC(=O)[C@H](C)NC(=O)[C@H](CCCNC(=N)N)NC(=O)[C@H](CCCNC(=N)N)NC(=O)[C@@H](N)CSSC[C@@H](C(N)=O)NC(=O)[C@H](CCCNC(=N)N)NC(=O)[C@H](CC(N)=O)NC(=O)[C@H](Cc2c[nH]c3ccccc23)NC(=O)[C@H](CCCNC(=N)N)NC1=O [PnCS1[W4A], CRRAARWNRC ^*] (H-CRRAARWNRC-NH2; disulfide 1-10)
5.47

Please do the same for C[C@@H]1NC(=O)[C@H](Cc2c[nH]c3ccccc23)NC(=O)[C@H](CCCNC(=N)N)NC(=O)[C@H](CCCNC(=N)N)NC(=O)[C@@H](N)CSSC[C@@H](C(N)=O)NC(=O)[C@H](CCCNC(=N)N)NC(=O)[C@H](CC(N)=O)NC(=O)[C@H](Cc2ccc(O)cc2)NC(=O)[C@H](CCCNC(=N)N)NC1=O [PnCS1[W7Y], CRRWARYNRC ^*] (H-CRRWARYNRC-NH2; disulfide 1-10) as well.
4.93

Check C[C@@H]1NC(=O)[C@H](Cc2c[nH]c3ccccc23)NC(=O)[C@H](CCCNC(=N)N)NC(=O)[C@H](CCCNC(=N)N)NC(=O)[C@@H](N)CSSC[C@@H](C(N)=O)NC(=O)[C@H](CCCNC(=N)N)NC(=O)[C@H](CC(N)=O)NC(=O)[C@H](Cc2c[nH]c3ccccc23)NC(=O)[C@H](CCCNC(=N)N)NC1=O [PnCS1, CRRWARWNRC ^*] (H-CRRWARWNRC-NH2; disulfide 1-10) too.
5.55

src = paper PMC9116130
